Test system: 379773-124-R-J2-PDC spheroid viability
Test: Anticancer human tumor 379773-124-R-J2-PDC patient-derived endometrial carcinoma cell line growth inhibition [POLQ]
Settings: second compound 3.16 µM; first compound 0.1 µM; hits give low values; spheroids with HUVEC and MSC
Provide the recorded viability, T/C for the entries that follow.
Quick note: give the figure in %, leave out the unit.

Query: If you can, please state the reported viability, T/C value of CC1COCCN1c1cc(C2(S(C)(=N)=O)CC2)nc(-c2ccnc3[nH]ccc23)n1 (stereo unspecified) + Nc1ccc(C#CCN(C(=O)Cc2ncc(C(F)(F)F)cc2C(F)(F)F)c2ccc(F)cc2)nn1 .
Response: 85.6

Query: Can you check COc1cccc(OCCCN)c1-c1cc(Nc2cnc(C#N)cn2)n[nH]1 + Nc1ccc(C#CCN(C(=O)Cc2ncc(C(F)(F)F)cc2C(F)(F)F)c2ccc(F)cc2)nn1 next?
Response: 1.93

Query: Can you check CC1COCCN1c1cc(C2(O)CC3CCC(C2)O3)c2cnn(-c3ccn[nH]3)c2n1 (stereo unspecified) + Nc1ccc(C#CCN(C(=O)Cc2ncc(C(F)(F)F)cc2C(F)(F)F)c2ccc(F)cc2)nn1 next?
Response: 59.3

Query: Can you check CC1COCCN1c1cc(-c2ccnn2C)c2ccnc(-c3ccn[nH]3)c2n1 (stereo unspecified) + Nc1ccc(C#CCN(C(=O)Cc2ncc(C(F)(F)F)cc2C(F)(F)F)c2ccc(F)cc2)nn1 next?
Response: 62.9

Query: Can you check CCc1c2c(nc3ccc(O)cc13)-c1cc3c(c(=O)n1C2)COC(=O)[C@]3(O)CC + Cc1cccc(N(C)C(=O)C2C(O)CCN2c2nc(C)cc(C(F)(F)F)c2C#N)c1 next?
Response: 3.81

Query: Can you check COc1cccc(OCCCN)c1-c1cc(Nc2cnc(C#N)cn2)n[nH]1 + Cc1cccc(N(C)C(=O)C2C(O)CCN2c2nc(C)cc(C(F)(F)F)c2C#N)c1 next?
Response: 2.7

---

Tested on: 379773-124-R-J2-PDC spheroid viability
Experiment: Anticancer human tumor 379773-124-R-J2-PDC cell line growth inhibition [POLQ]; active = viability on the fitted dose curve at most 10% of control; inactive = the rest;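 note: spheroids exposed to drugs for seven days before readout; percent viability relative to DMSO vehicle control taken as 100%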
Conditions: second compound 0.1 µM; first compound 10 µM; spheroids with HUVEC and MSC
Description: Multicellular complex tumor spheroid response to Polymerase (POL) inhibitors (novobiocin, ART-558, RP6685) in combination with a variety of drugs and investigational agents in selected tumor cell lines The POL inhibitors (novobiocin, ART-558, and RP6685) were evaluated both individually and in combination with standard of care and investigational anticancer small molecules within a complex spheroid model of solid tumors. . […]
Choose one outcome from this list and give only that: label 1 = active, label 0 = inactive

Query: Short answer needed: outcome of this test for CC1COCCN1c1cc(-c2ccnn2C)c2ccnc(-c3ccn[nH]3)c2n1 (stereo not given) + Cc1cccc(N(C)C(=O)C2C(O)CCN2c2nc(C)cc(C(F)(F)F)c2C#N)c1 ?
Response: label 1

Query: Can you check C#Cc1c(F)ccc2cc(O)cc(-c3ncc4c(N5CC6CCC(C5)N6)nc(OCC56CCCN5CC(F)C6)nc4c3F)c12 (stereo not given) + Nc1ccc(C#CCN(C(=O)Cc2ncc(C(F)(F)F)cc2C(F)(F)F)c2ccc(F)cc2)nn1 next?
Response: label 0

Query: Can you check CC1COCCN1c1cc(C2(O)CC3CCC(C2)O3)c2cnn(-c3ccn[nH]3)c2n1 (stereo not given) + Cc1cccc(N(C)C(=O)C2C(O)CCN2c2nc(C)cc(C(F)(F)F)c2C#N)c1 next?
Response: label 1

Query: Can you check O=C(Nc1ccc(O)c(NS(=O)(=O)c2ccc(F)cc2)c1)c1ccc(-c2ccccc2)cc1 + COC1C(OC(N)=O)C(O)C(Oc2ccc3c(O)c(NC(=O)c4ccc(O)c(CC=C(C)C)c4)c(=O)oc3c2C)OC1(C)C next?
Response: label 0

Query: Can you check COc1cccc2c1C(=O)c1c(O)c3c(c(O)c1C2=O)CC(O)(C(=O)CO)CC3OC1CC(N)C(O)C(C)O1 (stereo not given) + Nc1ccc(C#CCN(C(=O)Cc2ncc(C(F)(F)F)cc2C(F)(F)F)c2ccc(F)cc2)nn1 next?
Response: label 1

These data points were gathered from PubChem BioAssay AID1963848.
